# tgt: Histone-lysine N-methyltransferase NSD2 (Homo sapiens, UniProt O96028)
# Sequence (O96028 whole entry): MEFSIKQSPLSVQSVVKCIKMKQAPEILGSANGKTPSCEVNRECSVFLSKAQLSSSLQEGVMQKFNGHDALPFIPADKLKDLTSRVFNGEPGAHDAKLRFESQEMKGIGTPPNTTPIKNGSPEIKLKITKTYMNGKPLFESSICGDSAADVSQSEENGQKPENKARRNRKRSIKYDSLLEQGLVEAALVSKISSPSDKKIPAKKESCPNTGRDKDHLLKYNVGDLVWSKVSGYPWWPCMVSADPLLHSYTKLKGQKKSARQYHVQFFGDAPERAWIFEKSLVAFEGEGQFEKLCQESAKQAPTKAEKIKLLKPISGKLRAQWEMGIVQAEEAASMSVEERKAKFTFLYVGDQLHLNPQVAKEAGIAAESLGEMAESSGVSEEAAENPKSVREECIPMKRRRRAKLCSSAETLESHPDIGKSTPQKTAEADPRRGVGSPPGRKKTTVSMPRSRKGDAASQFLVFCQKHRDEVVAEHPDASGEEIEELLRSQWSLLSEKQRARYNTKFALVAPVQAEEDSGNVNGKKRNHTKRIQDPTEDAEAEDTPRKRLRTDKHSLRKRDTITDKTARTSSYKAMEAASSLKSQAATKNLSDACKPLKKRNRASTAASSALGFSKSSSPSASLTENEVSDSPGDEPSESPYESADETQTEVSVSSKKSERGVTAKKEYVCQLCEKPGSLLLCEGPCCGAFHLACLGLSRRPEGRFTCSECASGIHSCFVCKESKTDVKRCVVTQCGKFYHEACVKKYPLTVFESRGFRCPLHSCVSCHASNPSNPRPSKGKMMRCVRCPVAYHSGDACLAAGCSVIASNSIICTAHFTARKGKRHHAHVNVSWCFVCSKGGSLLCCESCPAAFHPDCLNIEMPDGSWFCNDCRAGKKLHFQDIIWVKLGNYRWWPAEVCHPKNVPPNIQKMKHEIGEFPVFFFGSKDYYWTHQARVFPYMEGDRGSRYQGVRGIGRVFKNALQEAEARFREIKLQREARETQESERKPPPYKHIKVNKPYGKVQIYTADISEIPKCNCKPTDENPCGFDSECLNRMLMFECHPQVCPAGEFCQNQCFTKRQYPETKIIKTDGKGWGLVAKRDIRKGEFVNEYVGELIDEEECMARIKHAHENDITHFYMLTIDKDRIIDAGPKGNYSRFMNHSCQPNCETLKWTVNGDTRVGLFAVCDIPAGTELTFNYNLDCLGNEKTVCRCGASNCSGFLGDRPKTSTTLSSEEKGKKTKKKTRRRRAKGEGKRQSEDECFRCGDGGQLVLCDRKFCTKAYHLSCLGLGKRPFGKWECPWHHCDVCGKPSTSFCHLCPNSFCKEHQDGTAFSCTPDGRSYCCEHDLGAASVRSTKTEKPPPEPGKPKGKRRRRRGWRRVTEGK
# test-name: Binding affinity to NSD2 PWWP1 domain (unknown origin) assessed as dissociation constant by isothermal titration calorimetric analysis
pKd: −log10 of the molar value.
observed-property: pKd

                                   compound                                       tgt  observed_property   val
0  N#Cc1ccc(C(C(N)=O)N2CCC2c2ccc(Cl)cc2)cc1 (stereo unspecified)  Histone-lysine N-methyltransferase NSD2 (Homo sapiens, UniProt O96028)                pKd  5.05
